Test system: Mycobacterium smegmatis mc^2155
Experiment: Mycobacterial growth inhibition in liquid culture (MIC99)
Assay type: cell-based
Conditions: Mycolicibacterium smegmatis, MC2155|MC^2155, 48 h, read-out: MIC99 on M. smegmatis, mc2155; two-day's growth at 37°C; 99% decrease vs DMSO control
endpoint_name: MIC99 (µg/mL)
Field: numeric (µg/mL). Do not append units.

{"chem_smiles": "C#CC(C)(C)Oc1ccc2oc3ccccc3c2c1", "assayed_system": "Mycobacterium smegmatis mc^2155", "value_unit": "µg/mL", "recorded_number": 12}

// next entry
What MIC99 appears in the records for this compound with Mycobacterium smegmatis mc^2155? CC1(C)CCc2c(ccc3oc4ccccc4c23)O1
5

All values here come from patent EP1770089A1.
